System: EPHA1
Conditions: concentration: 1 μM, replicates: in singlicate; n = 1;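 further: KINOMEscan kinase panel screen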
measurement.label: %Inh (%)
Hi! Could you send only the number? It should be in %, unit omitted.

Some solved cases for reference:
>  <compound>
Cn1cnc2c(N)ncnc21

>  <assay.system>
EPHA1

>  <measurement.label>
%Inh

>  <units.text>
%

>  <measured.number>
0

$$$$
>  <compound>
O=C(Nc1n[nH]c2nc(-c3cccs3)c(Br)cc12)C1CCCC1

>  <assay.system>
EPHA1

>  <measurement.label>
%Inh

>  <units.text>
%

>  <measured.number>
10

$$$$
>  <compound>
Cc1ccc(NC(=O)c2ccc(Cl)cc2)cc1-c1ccc(C(=O)Nc2ccncc2)cc1

>  <assay.system>
EPHA1

>  <measurement.label>
%Inh

>  <units.text>
%

>  <measured.number>
19

$$$$

Lookup result for COc1ccc(CSc2nnc(-c3ccc4nccn4c3)o2)cc1C(F)(F)F ; measured %Inh: 0

Consider COc1cc2ncnc(Nc3cccc(Br)c3)c2cc1OC.Cl . Its measured %Inh is 18

The recorded %Inh for entry O=c1cc(N2CCOCC2)nc2n(Cc3cccc(Cl)c3Cl)c3ccccc3n12 equals 14

What the record says about COc1cccc(NC(=O)Nc2ccc(C)c(-c3ccc(C(=O)Nc4ccncc4)cc3)c2)c1 : %Inh is 20

Record CNc1nc(-c2ccc3c(N)n[nH]c3c2)cc(N2C[C@@H](C(=O)Nc3ccccc3)CC[C@H]2C)n1 . Reported %Inh: 14

Record CC(C)c1ccc(O)cc1Nc1ccnc2ccc(C(F)(F)F)cc12 . Reported %Inh: 6

Value of %Inh reported for the compound Fc1ccc(-c2nn3cccc(F)c3c2-c2ccncc2)cc1 is 22

Short answer for COc1ccc(CSc2nnc(-c3ccc4ncsc4c3)o2)cc1C(F)(F)F : %Inh was 0

%Inh reading for COC(=O)C(Cc1ccccc1)NC(=O)NC1CCN(c2ccnc(Nc3ccc(F)cc3)n2)C1 (stereo not shown) : 7

Reported %Inh of Cc1c(Cn2c3ccccc3n3c(=O)cc(N4CCOCC4)nc23)cccc1C(F)(F)F : 0

Recorded result, Cc1ccc(NC(=O)Nc2ccccc2F)cc1-c1ccc(C(=O)Nc2ccncc2)cc1 , %Inh: 0

Lab note: measured %Inh of CCn1c(-c2c(N)noc2C)nc2cnccc21 was 0

// recorded %Inh for O=C1NC(=O)C(c2ccc(Cl)cc2)=C1Nc1ccc(O)cc1 : 16

Measured %Inh of COc1ccc2cc(-c3nc(-c4ccccc4C(C)C)[nH]c3-c3ccncc3)ccc2c1 : 22

In plain terms, Nc1cccc(-c2ccc3c(N)n[nH]c3c2)n1 has a documented %Inh of 14

Record summary for Cc1ccc(-c2nc(Nc3ccncc3)c3ccccc3n2)s1 : reported %Inh = 16

----------
Test system: CHEK2
Conditions: concentration: 1 μM, replicates: in singlicate; n = 1
# %Inh annotations
Quick reminder: number only, in %, skip the unit.

Recorded %Inh, per entry:
>  <smiles.input>
O=C(Nc1n[nH]c2nc(-c3cccs3)c(Br)cc12)C1CCCC1

>  <assay.system>
CHEK2

>  <measured.number>
9

$$$$
>  <smiles.input>
COc1cccc(NC(=O)Nc2ccc(C)c(-c3ccc(C(=O)Nc4ccncc4)cc3)c2)c1

>  <assay.system>
CHEK2

>  <measured.number>
0

$$$$
>  <smiles.input>
COc1ccc(-c2coc3ccc(-c4nnc(C)o4)cc23)cc1

>  <assay.system>
CHEK2

>  <measured.number>
13

$$$$

Switching to the query record.
Measured on CHEK2, CS(=O)(=O)Cc1ccc(Nc2nccc(-c3c(-c4cccc(NC(=O)C5CCCCC5)c4)nn4ncccc34)n2)cc1 has a documented %Inh of 0

Where do the numbers come from? From paper PMC5540273.
